molecular target: full-length beta-Catenin (Uniprot ID P35222) (Homo sapiens (Human)) (UniProt P35222); test: fluorescence polarization competition; 10 nM full-length beta-catenin + 10 nM 5FAM-TCF4(10-53) probe, peptide titrated 10 uM to 5 nM
Sequence (P35222 2-781 limits assumed): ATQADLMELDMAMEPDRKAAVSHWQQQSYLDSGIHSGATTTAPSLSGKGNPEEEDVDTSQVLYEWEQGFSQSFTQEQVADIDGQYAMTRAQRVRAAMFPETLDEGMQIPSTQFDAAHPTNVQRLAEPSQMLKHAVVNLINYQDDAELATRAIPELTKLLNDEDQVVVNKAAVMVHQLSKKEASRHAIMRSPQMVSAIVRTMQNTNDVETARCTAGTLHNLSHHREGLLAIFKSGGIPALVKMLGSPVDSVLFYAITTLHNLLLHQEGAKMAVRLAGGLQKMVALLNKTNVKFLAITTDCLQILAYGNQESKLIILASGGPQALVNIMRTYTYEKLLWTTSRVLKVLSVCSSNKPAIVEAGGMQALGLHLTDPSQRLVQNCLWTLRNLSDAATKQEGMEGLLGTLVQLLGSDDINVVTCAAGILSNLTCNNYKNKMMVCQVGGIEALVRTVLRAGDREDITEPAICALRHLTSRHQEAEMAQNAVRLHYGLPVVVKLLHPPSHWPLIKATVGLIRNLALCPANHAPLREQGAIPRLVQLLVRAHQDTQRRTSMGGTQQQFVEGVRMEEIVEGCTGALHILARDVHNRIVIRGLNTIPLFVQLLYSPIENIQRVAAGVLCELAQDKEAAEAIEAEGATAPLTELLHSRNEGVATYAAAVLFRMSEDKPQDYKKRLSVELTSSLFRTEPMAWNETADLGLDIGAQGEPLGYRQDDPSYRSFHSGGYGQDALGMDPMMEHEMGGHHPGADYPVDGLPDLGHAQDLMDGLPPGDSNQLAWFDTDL
Starred links: 1 amine or outer side, 2 acyl side, 3 side chain; linkers in the order of their positions; H or OH if unused. Positions of bridges follow the written chain, without caps; N, C: chain ends. Non-standard residues stand in square brackets, D forms with d. Primed or numbered codes have the meaning given here. PyrS2″ = (S)-3-amino-1-((pent-4-en-1-yloxy)carbonyl)pyrrolidine-3-carboxylic acid (stapling residue), C=CCCCOC(=O)N1CC[C@@](N[*:1])(C(=O)[*:2])C1; B5(30) = 2-amino-2-(pent-4-en-1-yl)hept-6-enoic acid (2,2-bis(4-pentenyl)glycine, stitching residue), C=CCCCC(CCCC=C)(N[*:1])C(=O)[*:2]; B5(4) = 2,2-bis(4-pentenyl)glycine = 2-amino-2-(pent-4-en-1-yl)hept-6-enoic acid (stitching residue), C=CCCCC(CCCC=C)(N[*:1])C(=O)[*:2]; B5(5) = 2,2-bis(4-pentenyl)glycine, 2-amino-2-(pent-4-en-1-yl)hept-6-enoic acid (stitching residue), C=CCCCC(CCCC=C)(N[*:1])C(=O)[*:2]; Bta = N[C@@H](Cc1csc2ccccc12)C(=O)O; Lys(iPr) = CC(C)NCCCC[C@H](N)C(=O)O; αAllylPro = C=CC[C@@]1(C(=O)O)CCCN1; tBuAla = CC(C)(C)C[C@H](N)C(=O)O; 3Thi = N[C@@H](Cc1ccsc1)C(=O)O; Cha = N[C@@H](CC1CCCCC1)C(=O)O; hSer = N[C@@H](CCO)C(=O)O
READOUT_KIND: pIC50
Interpret pIC50 as the negative base-10 log of the concentration measured in mol/L.

Examples with answers:
{"BINDER": "Ac-[αAllylPro]N[Cha][B5(30)]DT[Lys(iPr)]AFL[PyrS2″]F[Bta]K-NH2 (staple 1-4, 4-11; not fully specified; printed as Ac-PL3-Asn-Cha-B5-Asp-Thr-iPrLys-Ala-Phe-Leu-PyrS2-Phe-BztA-Lys-NH2; also: staple -CH=CH- reduced to -CH2-CH2-) [I-2455]", "MEASURED_VALUE": 5.00}
{"BINDER": "Ac-[αAllylPro]N[Cha][B5(30)]DQ[hSer]AFL[PyrS2″][3Thi][Bta]Q-NH2 (staple 1-4, 4-11; not fully specified; printed as Ac-PL3-Asn-Cha-B5-Asp-Gln-Hse-Ala-Phe-Leu-PyrS2-3Thi-BztA-Gln-NH2; also: staple -CH=CH- reduced to -CH2-CH2-) [I-2451]", "MEASURED_VALUE": 5.31}
{"BINDER": "Ac-[αAllylPro]N[Cha][B5(30)]DQ[Lys(iPr)]AFL[PyrS2″][3Thi][Bta]Q-NH2 (staple 1-4, 4-11; not fully specified; printed as Ac-PL3-Asn-Cha-B5-Asp-Gln-iPrLys-Ala-Phe-Leu-PyrS2-3Thi-BztA-Gln-NH2; also: staple -CH=CH- reduced to -CH2-CH2-) [I-2452]", "MEASURED_VALUE": 5.14}

Just so you know, measured pIC50 for Ac-[αAllylPro]N[Cha][B5(30)]DT[hSer]AFL[PyrS2″]F[Bta]K-NH2 (staple 1-4, 4-11; not fully specified; printed as Ac-PL3-Asn-Cha-B5-Asp-Thr-Hse-Ala-Phe-Leu-PyrS2-Phe-BztA-Lys-NH2; also: staple -CH=CH- reduced to -CH2-CH2-) [I-2454] came out at 5.00

Just so you know, measured pIC50 for Ac-[αAllylPro]N[tBuAla][B5(5)]DHAAFL[PyrS2″]F[Bta]Q-NH2 (staple 1-4, 4-11) [I-2442] came out at 6.55

Just so you know, measured pIC50 for Ac-[αAllylPro]N[Cha][B5(4)]DT[Lys(iPr)]AFL[PyrS2″]F[Bta]K-NH2 (staple 1-4, 4-11) [I-2450] came out at 7.20

Just so you know, measured pIC50 for Ac-[αAllylPro]N[Cha][B5(30)]DT[hSer]AFL[PyrS2″]F[Bta]K-NH2 (staple 1-4, 4-11) [I-2449] came out at 5.00
